Listed here: items and their measured viability at 28.5 h, 10 µM.
Assay: in vitro
Conditions: human, hela cells, % viability
Hi! Could you send only the number? It should be in %, unit omitted.

Please review the following examples before continuing.
Cn1c(=O)c2c(nc(CN3CCN(Cc4ccccc4)CC3)n2CCc2ccccc2)n(C)c1=O: 90.9
CC(C)C(NS(=O)(=O)c1ccccc1)C(=O)Nc1ccccc1 (stereo not drawn): 87.8

Next up:
### Prompt Find the measured viability at 28.5 h, 10 µM of O=C(O)C1CCCN1C(=O)NCc1c(Cl)cccc1Cl (stereo not drawn) and report it.
### Response 88.1

* * *

Test: in vitro
Conditions: human, hela cells, % viability
Listed here: items and their measured viability at 28.5 h, 10 µM.
Hi! Could you send only the number? It should be in %, unit omitted.

### Prompt Find the measured viability at 28.5 h, 10 µM of CN(C)CCN(CCc1ccccc1)Cc1ccncc1 and report it.
### Response 91.5

### Prompt Find the measured viability at 28.5 h, 10 µM of O=[N+]([O-])c1cc2c(cc1CN1CCN(Cc3ccccc3)CC1)OCO2 and report it.
### Response 94.7

### Prompt Find the measured viability at 28.5 h, 10 µM of CCn1c(=O)c(C=Cc2cccc(Br)c2)nc2cc(C(=O)O)ccc21 and report it.
### Response 110

### Prompt Find the measured viability at 28.5 h, 10 µM of O=C(/C=C/c1ccc2c(c1)OCO2)NCCSCc1c(F)cccc1Cl and report it.
### Response 90.3

### Prompt Find the measured viability at 28.5 h, 10 µM of O=C(c1cccc(NS(=O)(=O)c2cc(F)c(Br)cc2F)c1)N1CCOCC1 and report it.
### Response 86.7

### Prompt Find the measured viability at 28.5 h, 10 µM of Cc1ccc(OCC(=O)Nc2cc(Cl)ccc2O)cc1C and report it.
### Response 108

### Prompt Find the measured viability at 28.5 h, 10 µM of COc1cncc(C(NC(=O)Cc2cn3ccsc3n2)[C@H]2C[C@H](O)C2)c1 (some centres unmarked) and report it.
### Response 97.2

### Prompt Find the measured viability at 28.5 h, 10 µM of COc1cc(C)c2c(N)c(C(C)=O)sc2n1 and report it.
### Response 94

### Prompt Find the measured viability at 28.5 h, 10 µM of O=S(=O)(Cc1ccc(Br)cc1F)c1ccccn1 and report it.
### Response 90.4
